Reference for the values: the supplement of paper PMC5908809

system: KHYG-1 (IL-2 2.5 ng/mL); assay: drug sensitivity score (DSS) (DSS units); higher = more sensitive; extreme values may be limits of the assay; settings: 72 h
measured_attribute: drug sensitivity score
Output spec: single numeric token, no unit.

Study these solved cases before continuing.
compound: C[C@H]1C[C@@H]2[C@H]([C@@H](O)C[C@@]3(C)[C@H]2CC[C@]3(O)C(=O)CO)[C@@]2(C)C=CC(=O)C=C12 [Methylprednisolone] (max concentration tested 10000 nM)
drug sensitivity score: 10.5
//
compound: COc1cc2c(Nc3ccc(Cl)c(Cl)c3F)ncnc2cc1OC[C@@H]1C[C@@H]2CN(C)C[C@@H]2C1 [XL-647] (max concentration tested 1000 nM)
drug sensitivity score: 0.5

// moving on: another record for drug sensitivity score
Problem: I'd like to know its drug sensitivity score. The compound in question is COc1cc2c(cc1O)CC[C@@H]1[C@@H]2CC[C@]2(C)[C@@H](O)CC[C@@H]12 [2-methoxyestradiol] (max concentration tested 10000 nM)
Solution: 17.6
